tested on: Staphylococcus aureus; experiment: Antibacterial activity against Staphylococcus aureus clinical isolate after 18 to 22 hrs by broth microdilution method; assay type: functional
Property Measured: MIC

-- ask I would be grateful if you could share the reported MIC for CC(C)=N/N=C1\SCC(=O)N1Cc1ccccc1[N+](=O)[O-] .
-- reply > 256 µg/mL

-- ask I would be grateful if you could share the reported MIC for C/C(=N\N=C1/SCC(=O)N1Cc1cccc([N+](=O)[O-])c1)c1cccs1 .
-- reply > 256 µg/mL

-- ask I would be grateful if you could share the reported MIC for C/C(=N/N=C1\SCC(=O)N1Cc1ccccc1[N+](=O)[O-])c1ccccn1 .
-- reply > 256 µg/mL

-- ask I would be grateful if you could share the reported MIC for O=C1CS/C(=N\N=C2CCCC2)N1Cc1ccc(F)cc1 .
-- reply > 256 µg/mL

Dear colleague, could you send me MIC for each of the items below? Thanks.
1. O=C1CS/C(=N\N=C2CCCC2)N1Cc1cccc(Cl)c1
2. C/C(=N/N=C1\SCC(=O)N1Cc1ccc(F)cc1)c1ccccn1
3. O=C1CS/C(=N\N=C2CCCC2)N1Cc1cccc(F)c1
4. C/C(=N\N=C1/SCC(=O)N1Cc1ccccc1F)c1cccs1
5. CC(C)=N/N=C1\SCC(=O)N1Cc1cccc(F)c1
6. CC(C)=N/N=C1\SCC(=O)N1Cc1ccc(Cl)cc1

-- reply
["> 256 µg/mL", "> 256 µg/mL", "> 256 µg/mL", "> 256 µg/mL", "> 256 µg/mL", "> 256 µg/mL"]

Dear colleague, could you send me MIC for each of the items below? Thanks.
1. C/C(=N/N=C1\SCC(=O)N1Cc1ccc(N)cc1)c1ccccn1
2. CC(C)=N/N=C1\SCC(=O)N1Cc1ccccc1Cl

-- reply
> 256 µg/mL
> 256 µg/mL
